Below is a list of entries, each paired with its recorded growth value.
Test system: OVCAR-8 ovarian
Test: NCI-60 one-dose screen, 48 h (100 = growth as untreated, 0 = no growth, -100 = all killed)
Conditions: 10 µM unless noted
The panel holds about 83,000 compounds, 20% with a hit somewhere; the sample as a whole holds those more often.

>  <record-smiles>
Cc1cc(Cl)ccc1Nc1nc(C(F)(F)F)ccc1C(=O)N/N=C/c1ccc([N+](=O)[O-])cc1

>  <result-unit>
%

>  <growth>
9.08

$$$$
>  <record-smiles>
COc1ccc(-c2csc(NC(=O)CSc3nc(-c4ccccc4)cc(=O)[nH]3)n2)cc1

>  <result-unit>
%

>  <growth>
70.8

$$$$
>  <record-smiles>
C[C@]12CC[C@@H]3c4ccc(O)c([N+](=O)[O-])c4CC[C@H]3[C@@H]1CCC2=O

>  <result-unit>
%

>  <growth>
112

$$$$
>  <record-smiles>
N#Cc1c(-c2cccs2)cc(-c2cccnc2)[nH]c1=O

>  <result-unit>
%

>  <growth>
97.9

$$$$

* * *

System: PC-3 prostate
Assay: NCI-60 one-dose screen, 48 h (100 = growth as untreated, 0 = no growth, -100 = all killed)
Details: 10 µM unless noted
The panel holds about 83,000 compounds, 20% with a hit somewhere; the sample as a whole holds those more often.
Below is a list of entries, each paired with its recorded growth value.

>  <record-smiles>
C/C(Nc1ccc(Cl)c(Cl)c1)=C1\CCOC1=O

>  <result-unit>
%

>  <growth>
86.8

$$$$
>  <record-smiles>
O=C(OCc1ccc2c(Cl)cc(Cl)c(O)c2n1)n1cncn1

>  <result-unit>
%

>  <growth>
42.5

$$$$
>  <record-smiles>
C#Cc1cccc(Nc2ncnc3ccc(-c4cnc(N)nc4)cc23)c1

>  <result-unit>
%

>  <growth>
27.1

$$$$
>  <record-smiles>
CCn1c(=S)sc2c(Nc3ccc(F)cc3)nc(-c3cccnc3)nc21

>  <result-unit>
%

>  <growth>
56

$$$$
>  <record-smiles>
CCCCNC(=O)Oc1ccc(/C(=C(/CC)Cc2ccccc2)c2ccc(OCCN3CCCCCC3)cc2)cc1

>  <result-unit>
%

>  <growth>
39.8

$$$$

* * *

System: MOLT-4 leukemia
Assay: NCI-60 one-dose screen, 48 h
Settings: 10 µM unless noted
This is part of a sample that, as a whole, favours compounds with a hit. Of some 83,000 tested, about 20% had one in any assay. Active and inactive are the calls of the source. Rule for the calls: active = growth percent below 10; inactive = the rest.
Labels: active, inactive

>  <compound>
O=C(NCCCCNC(=O)OCc1ccc2c(Cl)cc(Cl)c(O)c2n1)OCc1ccc2c(Cl)cc(Cl)c(O)c2n1

>  <measured-target>
MOLT-4 leukemia

>  <assigned-class>
inactive

$$$$
>  <compound>
CN(C)CCCC1(c2ccc(F)cc2)OCc2cc(-c3cncc4ccccc34)ccc21 (stereo unspecified)

>  <measured-target>
MOLT-4 leukemia

>  <assigned-class>
inactive

$$$$
>  <compound>
N=C(N)c1ccc(-c2ccc(-c3ccc(F)cc3)o2)o1

>  <measured-target>
MOLT-4 leukemia

>  <assigned-class>
active

$$$$
>  <compound>
CN(Cc1ccc(C(F)(F)F)cc1)CC(O)C(=O)Nc1ccc(Cl)cc1 (stereo unspecified)

>  <measured-target>
MOLT-4 leukemia

>  <assigned-class>
active

$$$$
>  <compound>
O=C(CSc1nc(-c2ccccc2)[nH]c1S(=O)(=O)c1ccccc1)NC1CC1

>  <measured-target>
MOLT-4 leukemia

>  <assigned-class>
inactive

$$$$
>  <compound>
O=Cc1ccc([N+](=O)[O-])s1

>  <measured-target>
MOLT-4 leukemia

>  <assigned-class>
inactive

$$$$

* * *

Tested on: T-47D breast
Test: NCI-60 one-dose screen, 48 h
Conditions: 10 µM unless noted
Compounds without any hit were thinned out: in the full panel of roughly 83,000, 20% have a hit. Active and inactive are the calls of the source. Rule for the calls: active = growth percent below 10; inactive = the rest.
Labels: t = active, f = inactive

>  <molecule>
COc1cc(CNC(=O)CCCC/C=C/C(C)C)ccc1OCc1nnc(Nc2ccc([N+](=O)[O-])cc2)o1

>  <assigned-class>
f

$$$$
>  <molecule>
CCCCCC(=O)OCC(=O)O[C@@H]1C[C@]2(C(C)C)O[C@@]1(C)[C@@H]1CC[C@@H](C)[C@H]1[C@@H]2OC(=O)/C=C/c1ccccc1

>  <assigned-class>
f

$$$$
>  <molecule>
CCOC(=O)c1c(C)c2c(n1C)CSc1cc(C(=O)c3ccccc3)c(=O)[nH]c1-2

>  <assigned-class>
f

$$$$
>  <molecule>
COc1ccc(C(=O)Nc2ncc(Cc3cccc(Cl)c3)s2)cc1OC

>  <assigned-class>
t

$$$$
>  <molecule>
CC(=O)[C@@H]1CCC=C2CC[C@]3(C)[C@@H](CC[C@@H]4[C@@]5(C)CCCNC(C)(C)[C@@H]5CC[C@]43C)[C@H]21

>  <assigned-class>
f

$$$$
>  <molecule>
CC1=C(Nc2ccc(N3CCN(C)CC3)cc2)C(=O)c2cncnc2C1=O

>  <assigned-class>
t

$$$$
>  <molecule>
O=C(c1ccc(Cl)cc1)N1CCN(c2ccnc3cc(Cl)ccc23)CC1

>  <assigned-class>
f

$$$$
>  <molecule>
COCCn1c(-c2csc(-c3cn(C)c4ccc(OC)cc34)n2)cc2cccnc21

>  <assigned-class>
t

$$$$
>  <molecule>
O=Cc1ccc([N+](=O)[O-])s1

>  <assigned-class>
f

$$$$
>  <molecule>
CC1Cc2c(Cl)ncnc2N(C)c2ccc(F)cc21 (configuration not stated)

>  <assigned-class>
f

$$$$
>  <molecule>
CN1CCN(C(=O)OCc2ccc3c(Cl)cc(Cl)c(O)c3n2)CC1

>  <assigned-class>
f

$$$$
>  <molecule>
N#Cc1c(-c2ccc(Cl)cc2)nc(SCC(=O)NC2=NN=C(c3ccccc3)CS2)[nH]c1=O

>  <assigned-class>
f

$$$$

* * *

System: SF-295 CNS
Assay: NCI-60 one-dose screen, 48 h
Settings: 10 µM unless noted
The panel holds about 83,000 compounds, 20% with a hit somewhere; the sample as a whole holds those more often. Activity calls are given as the source filed them. Rule for the calls: active = growth percent below 10; inactive = the rest.
Labels: active, inactive

>  <molecule>
O=C1N(Cc2ccccc2Cl)c2ccccc2C12NN=C(c1cccc(Cl)c1)S2 (stereo not drawn)

>  <assigned-class>
active

$$$$
>  <molecule>
O=C(c1ccc(Cl)cc1)N1CCN(c2ccnc3cc(Cl)ccc23)CC1

>  <assigned-class>
inactive

$$$$
>  <molecule>
O=C(OCc1ccc2cccc(O)c2n1)N1CCN(C(=O)c2cc3cc(F)ccc3[nH]2)CC1

>  <assigned-class>
inactive

$$$$
>  <molecule>
CCc1n(Cc2ccc3ccccc3c2)cc[n+]1Cc1ccc2ccccc2c1

>  <assigned-class>
active

$$$$
>  <molecule>
O=C(CCCCCCN1CC(=O)N2[C@H](c3cc(Br)cs3)c3[nH]c4ccccc4c3C[C@H]2C1=O)NO

>  <assigned-class>
inactive

$$$$
>  <molecule>
CCCC(O)Cn1ncc(C(=O)OCC)c1NC(=O)NCc1ccccc1F (stereo not drawn)

>  <assigned-class>
inactive

$$$$
>  <molecule>
COc1ccc(C2c3sc4c(F)cccc4c3Oc3nc[nH]c(=O)c32)cc1 (stereo not drawn)

>  <assigned-class>
inactive

$$$$
>  <molecule>
CCN(CC)C(=S)SC(SC(=S)N(CC)CC)C(=O)c1nnn(-c2ccc([N+](=O)[O-])cc2)c1C

>  <assigned-class>
inactive

$$$$

* * *

Test system: NCI-H226 lung
Experiment: NCI-60 one-dose screen, 48 h
Details: 10 µM unless noted
The panel holds about 83,000 compounds, 20% with a hit somewhere; the sample as a whole holds those more often. Calls of active or inactive are those of the source. The calls were made as follows: active = growth percent below 10; inactive = the rest.
Labels: active, inactive

>  <molecule>
COC(=O)CCC(=O)C(=O)OC

>  <measured-target>
NCI-H226 lung

>  <assigned-class>
active

$$$$
>  <molecule>
O=C1c2cc(Cl)ccc2S(=O)(=O)c2c(NCCCNCCO)nc3ccccc3c21

>  <measured-target>
NCI-H226 lung

>  <assigned-class>
inactive

$$$$
>  <molecule>
COc1ccc(-c2nnc(-c3ccc4c(c3)nc(-c3ccncc3)n4C3CCCCC3)o2)cc1

>  <measured-target>
NCI-H226 lung

>  <assigned-class>
inactive

$$$$
>  <molecule>
CCOC(=O)C1=C(NC)OCC1=O

>  <measured-target>
NCI-H226 lung

>  <assigned-class>
inactive

$$$$
>  <molecule>
CSc1nc2sc3c(c2c(=O)n1-c1ccc([N+](=O)[O-])cc1)CCCCC3

>  <measured-target>
NCI-H226 lung

>  <assigned-class>
inactive

$$$$
>  <molecule>
CCN(CC)C(=S)SC(SC(=S)N(CC)CC)C(=O)c1nnn(-c2ccc([N+](=O)[O-])cc2)c1C

>  <measured-target>
NCI-H226 lung

>  <assigned-class>
inactive

$$$$
>  <molecule>
COc1cc(OC)cc(C2=C3CC[C@@H]4[C@H](CC[C@]5(C)C(=O)CC[C@@H]45)C3=CC3C(O)c4cccnc4N4C(=O)COC234)c1 (stereo not given in full)

>  <measured-target>
NCI-H226 lung

>  <assigned-class>
inactive

$$$$
>  <molecule>
O=C1Nc2ccccc2/C1=C\c1nc(-c2ccccc2F)n2ccccc12

>  <measured-target>
NCI-H226 lung

>  <assigned-class>
active

$$$$
>  <molecule>
N#Cc1c(-c2ccc(Cl)cc2)nc(SCC(=O)NC2=NN=C(c3ccccc3)CS2)[nH]c1=O

>  <measured-target>
NCI-H226 lung

>  <assigned-class>
inactive

$$$$
>  <molecule>
O=C(O)[C@@H]1c2ccccc2-c2ccccc2[C@H]1C(=O)O

>  <measured-target>
NCI-H226 lung

>  <assigned-class>
inactive

$$$$
